# MEASUREMENT TARGET: Adenosine receptor A3 (Homo sapiens, UniProt P0DMS8)
# Sequence (P0DMS8 whole entry): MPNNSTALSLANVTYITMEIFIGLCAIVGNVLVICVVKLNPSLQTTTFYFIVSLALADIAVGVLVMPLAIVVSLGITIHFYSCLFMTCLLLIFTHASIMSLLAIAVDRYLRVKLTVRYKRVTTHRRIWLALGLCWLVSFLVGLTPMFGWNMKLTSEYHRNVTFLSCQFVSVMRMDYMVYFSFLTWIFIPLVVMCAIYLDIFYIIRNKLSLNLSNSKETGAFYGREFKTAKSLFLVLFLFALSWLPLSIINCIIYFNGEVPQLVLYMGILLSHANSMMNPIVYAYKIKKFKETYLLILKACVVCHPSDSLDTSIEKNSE
# ASSAY: Agonist activity at adenosine A3 receptor (unknown origin) assessed as stimulation of [35S]GTPgammaS binding
OBSERVABLE: EC50

[[record]]
item_smiles = "OC[C@@]12C[C@@H]1[C@@H](n1cnc3c(NCc4cccc(I)c4)nc(Cl)nc31)[C@H](O)[C@@H]2O"
observable = "EC50"
readout_value = "< 1 nM"


Consider now this further compound.
Lab note: measured EC50 of OC[C@@]12C[C@@H]1[C@@H](n1cnc3c(NCc4cccc(I)c4)ncnc31)[C@H](O)[C@@H]2O was < 1 nM

Reference source for all entries: ChEMBL document CHEMBL3217405
